- protocol-description: LNP particle size by dynamic light scattering (Zetasizer Nano ZS)
- Format: physicochemical
- condition-context: Table 6; N/P ratio 3:1; DMPE-PEG2000
If the reported <d>N (nm) equals or exceeds 60 nm, assign T. If not, assign F.

INSERT INTO results (molecule, class_name) VALUES
  ('CCCCCCCCC(CCCCCCCC)OC(=O)CCCCCCCC(CCCCCCCC(=O)OCC1CC1CCCCCC)NCC1COC1 (centres unmarked)', 'F'),
  ('CCCCCCCCC(CCCCCCCC)OC(=O)CCCCCCCC(CCCCCCCC(=O)OC(CC)CCCC)NCC1CCOC1 (centres unmarked)', 'T'),
  ('CCCCCC(CCCCC)CCOC(=O)CCCCCCCCCC(CCCCC(=O)OCCC(CCCCC)CCCCC)NC1CC2(COC2)C1 (centres unmarked)', 'F'),
  ('CCCCCCCCC(CCCCCCCC)OC(=O)CCCCCCCC(CCCCCCCC(=O)OC(CC)CCCCC)NC1CC2(COC2)C1 (centres unmarked)', 'F'),
  ('CCCCCCCCCCC(C)OC(=O)CCCCCC(CCCCCCCC(=O)OC(CCCCCCCC)CCCCCCCC)NC1CC2(COC2)C1 (centres unmarked)', 'F');
